system_under_test: HLA-B*51:01
test_name: IEDB peptide-MHC binding, purified MHC/competitive/fluorescence; filed as Kd, often an IC50 or EC50 that approximates it; bounds were set here for any values at or beyond the usual limits of such assays
protocol_conditions: source organism: Salmonella enterica subsp. enterica serovar Typhi
attribute_measured: Kd

Input: Identify measured Kd associated with `HVTQHWPQL`
Output: ≥ 20 µM

* * *

system_under_test: HLA-B*15:01
test_name: IEDB peptide-MHC binding, purified MHC/direct/fluorescence; filed as Kd, often an IC50 or EC50 that approximates it; bounds were set here for any values at or beyond the usual limits of such assays
protocol_conditions: source organism: Yersinia enterocolitica
attribute_measured: Kd
State the value, then name its unit.

Input: Identify measured Kd associated with `RIYSHIAPY`
Output: 109 nM

* * *

system_under_test: HLA-A*03:01
test_name: IEDB peptide-MHC binding, purified MHC/competitive/fluorescence; filed as Kd, often an IC50 or EC50 that approximates it; bounds were set here for any values at or beyond the usual limits of such assays
protocol_conditions: source organism: Salmonella enterica subsp. enterica serovar Typhi
attribute_measured: Kd

HVCYFSHPY : ≥ 20 µM

Please examine the following record next.
Input: Param request: Kd | system HLA-A*03:01 | item `HVTQHWPQL`
Output: ≥ 20 µM

* * *

system_under_test: HLA-A*03:01
test_name: IEDB peptide-MHC binding, purified MHC/direct/fluorescence; filed as Kd, often an IC50 or EC50 that approximates it; bounds were set here for any values at or beyond the usual limits of such assays
protocol_conditions: source organism: Giardia lamblia ATCC 50803
pKd: −log10 of the molar value.
attribute_measured: pKd

See these solved cases before continuing.
RPRGHREFC : ≤ 4.70
LPVFATIGL : ≤ 4.70

Please examine the following record next.
Input: Param request: pKd | system HLA-A*03:01 | item `SVKERGPAY`
Output: 6.21

* * *

system_under_test: HLA-A*02:06
test_name: IEDB peptide-MHC binding, purified MHC/competitive/fluorescence; filed as Kd, often an IC50 or EC50 that approximates it; bounds were set here for any values at or beyond the usual limits of such assays
protocol_conditions: source organism: Human herpesvirus 5 strain Towne
attribute_measured: Kd

Input: Identify measured Kd associated with `NLVPMVATV`
Output: ≤ 0.1 nM

* * *

system_under_test: HLA-B*40:01
test_name: IEDB peptide-MHC binding, purified MHC/direct/fluorescence; filed as Kd, often an IC50 or EC50 that approximates it; bounds were set here for any values at or beyond the usual limits of such assays
protocol_conditions: source organism: Mammarenavirus lassaense
attribute_measured: pKd
# reply with the number alone; pKd is -log10 of concentration in mol/L

Input: Param request: pKd | system HLA-B*40:01 | item `VENSPRASL`
Output: 6.95

* * *

system_under_test: HLA-B*07:02
test_name: IEDB peptide-MHC binding, purified MHC/direct/fluorescence; filed as Kd, often an IC50 or EC50 that approximates it; bounds were set here for any values at or beyond the usual limits of such assays
protocol_conditions: source organism: Burkholderia mallei
attribute_measured: Kd

Input: Identify measured Kd associated with `KLYPNVDFY`
Output: ≥ 20 µM

* * *

system_under_test: HLA-B*08:01
test_name: IEDB peptide-MHC binding, purified MHC/direct/fluorescence; filed as Kd, often an IC50 or EC50 that approximates it; bounds were set here for any values at or beyond the usual limits of such assays
protocol_conditions: source organism: Shigella flexneri
attribute_measured: Kd

Input: Param request: Kd | system HLA-B*08:01 | item `DRLHPPNKL`
Output: ≥ 20 µM

* * *

system_under_test: HLA-A*02:19
test_name: IEDB peptide-MHC binding, purified MHC/competitive/fluorescence; filed as Kd, often an IC50 or EC50 that approximates it; bounds were set here for any values at or beyond the usual limits of such assays
protocol_conditions: source organism: Shigella dysenteriae Sd197
attribute_measured: Kd

Input: Identify measured Kd associated with `IEDDEIIWV`
Output: ≥ 20 µM

* * *

system_under_test: HLA-B*54:01
test_name: IEDB peptide-MHC binding, purified MHC/competitive/radioactivity; filed as Kd, often an IC50 or EC50 that approximates it; bounds were set here for any values at or beyond the usual limits of such assays
protocol_conditions: source organism: SARS coronavirus Tor2
Quick list: Kd per entry.

Input: Identify measured Kd associated with `FPQVGGLTSI`
Output: 25.7 nM

Input: Identify measured Kd associated with `VPWSKILAY`
Output: 536 nM

* * *

Quick list: Kd per entry.
system_under_test: HLA-A*32:15
test_name: IEDB peptide-MHC binding, purified MHC/competitive/fluorescence; filed as Kd, often an IC50 or EC50 that approximates it; bounds were set here for any values at or beyond the usual limits of such assays
protocol_conditions: source organism: human gammaherpesvirus 4
Give the quantity in nM, number only.

MMAKSNSPF : 42.8

Please examine the following record next.
Input: Identify measured Kd associated with `YAMAIRQAI`
Output: 92

* * *

system_under_test: HLA-A*31:01
test_name: IEDB peptide-MHC binding, purified MHC/direct/fluorescence; filed as Kd, often an IC50 or EC50 that approximates it; bounds were set here for any values at or beyond the usual limits of such assays
protocol_conditions: source organism: Cryptosporidium parvum
pKd: −log10 of the molar value.
attribute_measured: pKd

Input: Identify measured pKd associated with `KHNSAESAK`
Output: ≤ 4.70

* * *

system_under_test: HLA-A*03:01
test_name: IEDB peptide-MHC binding, purified MHC/direct/fluorescence; filed as Kd, often an IC50 or EC50 that approximates it; bounds were set here for any values at or beyond the usual limits of such assays
protocol_conditions: source organism: Cryptosporidium parvum
attribute_measured: pKd
# reply with the number alone; pKd is -log10 of concentration in mol/L

Input: Identify measured pKd associated with `KHNSAESAK`
Output: 4.91

* * *

system_under_test: HLA-A*30:01
test_name: IEDB peptide-MHC binding, purified MHC/competitive/fluorescence; filed as Kd, often an IC50 or EC50 that approximates it; bounds were set here for any values at or beyond the usual limits of such assays
protocol_conditions: source organism: Homo sapiens
attribute_measured: Kd

Input: Identify measured Kd associated with `CSDSDGLAP`
Output: ≥ 20 µM

* * *

system_under_test: HLA-A*02:03
test_name: IEDB peptide-MHC binding, purified MHC/competitive/radioactivity; filed as Kd, often an IC50 or EC50 that approximates it; bounds were set here for any values at or beyond the usual limits of such assays
protocol_conditions: source organism: Hepacivirus hominis
attribute_measured: Kd

Input: Identify measured Kd associated with `RDWAHNSL`
Output: ≥ 70.4 µM

* * *

system_under_test: HLA-B*15:17
test_name: IEDB peptide-MHC binding, purified MHC/direct/fluorescence; filed as Kd, often an IC50 or EC50 that approximates it; bounds were set here for any values at or beyond the usual limits of such assays
protocol_conditions: source organism: Shigella flexneri
attribute_measured: pKd
# reply with the number alone; pKd is -log10 of concentration in mol/L

Input: Identify measured pKd associated with `FSLGQGVKF`
Output: 8.72

* * *

system_under_test: HLA-A*02:11
test_name: IEDB peptide-MHC binding, purified MHC/direct/fluorescence; filed as Kd, often an IC50 or EC50 that approximates it; bounds were set here for any values at or beyond the usual limits of such assays
protocol_conditions: source organism: Influenza A virus (A/Taiwan/2/2006(H1N1))
attribute_measured: Kd (nM)
Give the quantity in nM, number only.

Input: Identify measured Kd associated with `ELDEIGEDV`
Output: 134

* * *

system_under_test: HLA-A*02:06
test_name: IEDB peptide-MHC binding, purified MHC/competitive/radioactivity; filed as Kd, often an IC50 or EC50 that approximates it; bounds were set here for any values at or beyond the usual limits of such assays
protocol_conditions: source organism: SARS coronavirus Tor2
attribute_measured: pKd
# reply with the number alone; pKd is -log10 of concentration in mol/L

See these solved cases before continuing.
TLIDFYLCFL : 8.52
MLLTFLTSLL : 7.61
CLDAGINYV : 8.81
CVMYASALV : 8.13

Please examine the following record next.
Input: Identify measured pKd associated with `SLVKPTVYV`
Output: 6.33

* * *

system_under_test: HLA-B*57:01
test_name: IEDB peptide-MHC binding, purified MHC/direct/fluorescence; filed as Kd, often an IC50 or EC50 that approximates it; bounds were set here for any values at or beyond the usual limits of such assays
protocol_conditions: source organism: Giardia lamblia ATCC 50803
pKd: −log10 of the molar value.
Quick list: pKd per entry.

Input: Identify measured pKd associated with `YMYAATNTH`
Output: ≤ 4.70

Input: Identify measured pKd associated with `NTWNQITKF`
Output: 5.95

Input: Identify measured pKd associated with `LPVFATIGL`
Output: ≤ 4.70

* * *

system_under_test: HLA-A*26:01
test_name: IEDB peptide-MHC binding, purified MHC/direct/fluorescence; filed as Kd, often an IC50 or EC50 that approximates it; bounds were set here for any values at or beyond the usual limits of such assays
protocol_conditions: source organism: Cryptosporidium parvum
attribute_measured: Kd

Input: Identify measured Kd associated with `KHNSAESAK`
Output: ≥ 20 µM
